Target: hFAP (Homo sapiens, UniProt Q12884)
Sequence (Q12884 with tags, fused parts or gaps): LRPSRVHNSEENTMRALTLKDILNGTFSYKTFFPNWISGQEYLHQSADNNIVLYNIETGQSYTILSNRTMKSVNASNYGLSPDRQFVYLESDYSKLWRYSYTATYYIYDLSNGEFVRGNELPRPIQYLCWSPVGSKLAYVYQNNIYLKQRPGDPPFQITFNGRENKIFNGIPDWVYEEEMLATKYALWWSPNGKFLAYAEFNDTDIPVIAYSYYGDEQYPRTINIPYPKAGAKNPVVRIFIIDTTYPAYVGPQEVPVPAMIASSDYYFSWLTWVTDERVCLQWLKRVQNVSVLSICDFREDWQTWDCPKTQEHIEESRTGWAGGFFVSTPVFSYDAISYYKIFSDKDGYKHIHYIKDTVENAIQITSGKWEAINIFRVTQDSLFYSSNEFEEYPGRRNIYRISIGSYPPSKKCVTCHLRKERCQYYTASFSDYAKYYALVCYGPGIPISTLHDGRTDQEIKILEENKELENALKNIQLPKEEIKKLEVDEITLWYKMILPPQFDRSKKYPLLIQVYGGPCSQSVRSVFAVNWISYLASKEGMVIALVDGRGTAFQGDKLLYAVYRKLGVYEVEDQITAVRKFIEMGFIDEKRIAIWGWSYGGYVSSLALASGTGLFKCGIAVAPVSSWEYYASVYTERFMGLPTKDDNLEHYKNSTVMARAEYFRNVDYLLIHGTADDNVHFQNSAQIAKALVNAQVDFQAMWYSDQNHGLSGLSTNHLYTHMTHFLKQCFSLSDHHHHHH
*1 amine or outer side, *2 acyl side, *3 side chain or, on linkers, in order; H or OH if unused. Where a SMILES comes first, the peptide text is derived from it. The star is where a group is joined. Fluorescein(5-Mal) = O=C1OC2(c3ccc(O)cc3Oc3cc(O)ccc32)c2ccc(N3C(=O)CC(*)C3=O)cc21; X2 = N#C[C@@H]1CC(F)(F)CN1C(=O)CNC(=O)c1ccnc2ccc(OCCCN3CCN(*)CC3)cc12; X1 = N#C[C@@H]1CC(F)(F)CN1C(=O)CNC(=O)c1ccnc2c(N*)cccc12; Suc = O=C(CCC(=O)[*:2])[*:1]
Listed molecules paired with reported pKd
pKd here is simply -log10 of the concentration when that concentration is written in mol/L.

Example entries begin here.
molecule="N#C[C@@H]1CC(F)(F)CN1C(=O)CNC(=O)c1ccnc2ccc(OCCCN3CCN(C(=O)c4ccc5c(c4)C(=O)OC54c5ccc(O)cc5Oc5cc(O)ccc54)CC3)cc12 [Haberkorn-fluo, reference compound]" val=9.05
molecule="N#C[C@@H]1CC(F)(F)CN1C(=O)CNC(=O)c1ccnc2ccc(OCCCN3CCN(C(=O)CCC(=O)N[C@@H](CC(=O)O)C(=O)N[C@@H](CCCCN)C(=O)N[C@@H](CC(=O)O)C(=O)N[C@@H](CSC4CC(=O)N(c5ccc6c(c5)C(=O)OC65c6ccc(O)cc6Oc6cc(O)ccc65)C4=O)C(=O)O)CC3)cc12 (stereo partly shown) [conjugate 25, reference compound] ({X2-Suc}-DKDC(Fluorescein(5-Mal))-OH)" val=8.99

QUERY: Please list pKd recorded for the molecule N#C[C@@H]1CC(F)(F)CN1C(=O)CNC(=O)c1ccnc2c(NC(=O)CCC(=O)NCCOCCOCCNC(=S)Nc3ccc4c(c3)C(=O)OC43c4ccc(O)cc4Oc4cc(O)ccc43)cccc12 [ESV6-fluo]
RESULT: 9.11

QUERY: Please list pKd recorded for the molecule N#C[C@@H]1CC(F)(F)CN1C(=O)CNC(=O)c1ccnc2c(NC(=O)CCC(=O)N[C@@H](CC(=O)O)C(=O)N[C@@H](CCCCN)C(=O)N[C@@H](CC(=O)O)C(=O)N[C@@H](CSC3CC(=O)N(c4ccc5c(c4)C(=O)OC54c5ccc(O)cc5Oc5cc(O)ccc54)C3=O)C(=O)O)cccc12 (stereo partly shown) [Conjugate 15] ({X1-Suc}-DKDC(Fluorescein(5-Mal))-OH)
RESULT: 9.17
